Entries and their pIC50 values follow.
Target: Ras farnesyl transferase (Rattus norvegicus, UniProt Q02293+Q04631)
Construct: endogenous in cells; host or cells: Rat2 fibroblasts transformed with H-Ras or with an H-Ras/K-Ras C-terminus fusion
Experiment: In vivo (cellular) inhibitory activity for Ras farnesyl transferase, Rat2 cell line transformed with fused protein of H-Ras substituted with polybasic lysine domain at C-terminus of K-Ras
Assay type: cell-based
Conditions: Rat2 cell line transformed with H-Ras fused with polybasic lysine domain of K-Ras C-terminus; concentration inhibiting 50% of farnesyl bonding; read-out: K-Ras CIC50
pIC50: −log10 of the molar value.
property.measured: pIC50

smiles_str=COCCN(C)C(=O)c1cn(Cc2cncn2C)cc1-c1cccc2ccccc12 assay_result="> 4.00"
smiles_str=CN1CCN(C(=O)c2cn(Cc3cncn3CCc3ccc(Cl)cc3)cc2-c2cccc3ccccc23)CC1 assay_result="4.30 to 5.00"
smiles_str=COCCN(C)C(=O)c1cn(Cc2c[nH]cn2)cc1-c1cccc2ccccc12 assay_result="4.30 to 5.00"
smiles_str=N#Cc1ccc(CNC(=O)c2cn(Cc3c[nH]cn3)cc2-c2cccc3ccccc23)cc1 assay_result="4.00 to 5.00"
smiles_str=O=C(c1cn(Cc2c[nH]cn2)cc1-c1cccc2ccccc12)N1CCCCC1 assay_result="4.00 to 5.00"
smiles_str=O=C(c1cn(Cc2c[nH]cn2)cc1-c1cccc2ccccc12)N1CCS(=O)(=O)CC1 assay_result="4.00 to 5.00"
smiles_str=CN1CCN(C(=O)c2cn(Cc3cncn3Cc3cccc4ccccc34)cc2-c2cccc3ccccc23)CC1 assay_result="4.30 to 5.00"
smiles_str=O=C(c1cn(Cc2cncn2Cc2ccc(Br)cc2)nc1-c1cccc2ccccc12)N1CCOCC1 assay_result=4.40

###

Entries and their pIC50 values follow.
Target: Ras farnesyl transferase (Homo sapiens, UniProt P49354+P49356)
Construct: made in house
Assay: In vitro inhibitory activity for Ras farnesyl transferase, K-Ras substrate
Assay type: biochemical
Conditions: in vitro farnesyl transferase assay, K-Ras; read-out: K-Ras IC50
pIC50: −log10 of the molar value.
property.measured: pIC50

smiles_str=CN1CCN(C(=O)c2cn(Cc3cncn3CCc3cccc(Cl)c3)cc2-c2cccc3ccccc23)CC1 censoring_qualifier== assay_result=8.52
smiles_str=O=C(c1cn(Cc2c[nH]cn2)cc1-c1cccc2ccccc12)N1CCCCC1 censoring_qualifier== assay_result=5.74
smiles_str=O=C(c1cn(Cc2cncn2Cc2ccc(Cl)cc2)nc1-c1cccc2ccccc12)N1CCOCC1 censoring_qualifier== assay_result=5.70
smiles_str=COCCN(C)C(=O)c1cn(Cc2cncn2Cc2ccc(Cl)cc2)nc1-c1cccc2ccccc12 censoring_qualifier== assay_result=6.70
smiles_str=COCCN(C)C(=O)c1cn(Cc2cncn2CC2CCN(C(=O)OC)CC2)nc1-c1cccc2ccccc12 censoring_qualifier== assay_result=7.00
smiles_str=COCCN(C)C(=O)c1cn(Cc2cncn2C)cc1-c1cccc2ccccc12 censoring_qualifier== assay_result=7.00
smiles_str=COCCN(C)C(=O)c1cn(Cc2cncn2Cc2cccc(Cl)c2)cc1-c1cccc2ccccc12 censoring_qualifier== assay_result=7.96
smiles_str=COCCN(C)C(=O)c1cn(Cc2cncn2CCc2ccc(Cl)cc2)cc1-c1cccc2ccccc12 censoring_qualifier== assay_result=8.52
smiles_str=CN1CCN(C(=O)c2cn(Cc3cncn3CCCc3ccccc3)cc2-c2cccc3ccccc23)CC1 censoring_qualifier== assay_result=8.70
smiles_str=Cc1cccc(Cn2cncc2Cn2cc(C(=O)N3CCN(C)CC3)c(-c3cccc4ccccc34)c2)c1 censoring_qualifier== assay_result=8.46
smiles_str=COCCN(C)C(=O)c1cn(Cc2cncn2CC2CCCCC2)cc1-c1cccc2ccccc12 censoring_qualifier== assay_result=7.21
smiles_str=O=C(OCc1ccccc1)N1CCC(Cn2cncc2Cn2cc(C(=O)N3CCOCC3)c(-c3cccc4ccccc34)n2)CC1 censoring_qualifier== assay_result=5.70
smiles_str=CN1CCN(C(=O)c2cn(Cc3cncn3CCc3cccc4ccccc34)cc2-c2cccc3ccccc23)CC1 censoring_qualifier== assay_result=8.52
smiles_str=CN1CCN(C(=O)c2cn(Cc3cncn3Cc3ccc4c(c3)OCO4)cc2-c2cccc3ccccc23)CC1 censoring_qualifier== assay_result=8.62
smiles_str=COCCN(C)C(=O)c1cn(Cc2cncn2C)nc1-c1cccc2ccccc12 censoring_qualifier== assay_result=5.30
smiles_str=COCCN(C)C(=O)c1cn(Cc2cncn2CCc2cccc(Cl)c2)cc1-c1cccc2ccccc12 censoring_qualifier== assay_result=8.30
smiles_str=O=C(c1sc(Cc2cncn2Cc2ccc(Cl)cc2)nc1-c1cccc2ccccc12)N1CCOCC1 censoring_qualifier=< assay_result=4.30
smiles_str=COCCN(C)C(=O)c1cn(Cc2cncn2Cc2ccc3c(c2)OCO3)cc1-c1cccc2ccccc12 censoring_qualifier== assay_result=8.46

###

Biological target: Ras farnesyl transferase (Rattus norvegicus, UniProt Q02293+Q04631)
Construct: endogenous in cells; host or cells: Rat2 fibroblasts transformed with H-Ras or with an H-Ras/K-Ras C-terminus fusion
Test: In vivo (cellular) inhibitory activity for Ras farnesyl transferase, Rat2 cell line which expresses C-Harvey-Ras protein
Type: cell-based
Conditions: Rat2 cell line expressing C-Harvey-Ras; concentration inhibiting 50% of farnesyl bonding of Ras protein; read-out: H-Ras CIC50
pIC50: −log10 of the molar value.
Entries and their pIC50 values follow.
property.measured: pIC50

compound="CN1CCN(C(=O)c2cn(Cc3cncn3CCc3ccc(Br)cc3)cc2-c2cccc3ccccc23)CC1 [Compound 34]" assay_result=7.70
compound="O=C(c1nc(Cc2cnc[nH]2)oc1-c1cccc2ccccc12)N1CCOCC1 [Compound 143]" assay_result=4.70
compound="COCCN(C)C(=O)c1cn(Cc2cncn2Cc2ccc(Br)cc2)nc1-c1cccc2ccccc12 [Compound 154]" assay_result=6.82
compound="CN1CCN(C(=O)c2cn(Cc3cncn3CCc3ccccc3Cl)cc2-c2cccc3ccccc23)CC1 [Compound 24]" assay_result=7.60
compound="COCCN(C)C(=O)c1cn(Cc2cncn2C(C)c2ccccc2)cc1-c1cccc2ccccc12 (stereo in doubt) [Compound 8]" assay_result=7.60
compound="COCCN(C)C(=O)c1cn(Cc2cncn2C)nc1-c1cccc2ccccc12 [Compound 157]" assay_result=7.00

###

Target: Ras farnesyl transferase (Homo sapiens, UniProt P49354+P49356)
Construct: made in house
Assay: In vitro inhibitory activity for Ras farnesyl transferase, H-Ras substrate
Assay type: biochemical
pIC50: −log10 of the molar value.
Response key: true (1) means pIC50 >= 7; false (0) means pIC50 < 7.

compound="O=C(c1cn(Cc2c[nH]cn2)cc1-c1cccc2ccccc12)c1cccc2ccccc12 [Compound 69]" target_system="Ras farnesyl transferase (Homo sapiens, UniProt P49354+P49356)" label_value="false (0)"
compound="N#Cc1ccc(Cn2cncc2Cn2ccc(C(=O)c3cccc4ccccc34)c2)cc1 [Compound 139]" target_system="Ras farnesyl transferase (Homo sapiens, UniProt P49354+P49356)" label_value="true (1)"
compound="COCCN(C)C(=O)c1cn(Cc2cncn2Cc2ccc(Br)cc2)cc1C(=O)c1cccc2ccccc12 [Compound 141]" target_system="Ras farnesyl transferase (Homo sapiens, UniProt P49354+P49356)" label_value="false (0)"

###

Target: Ras farnesyl transferase (Homo sapiens, UniProt P49354+P49356)
Construct: made in house
Assay: In vitro inhibitory activity for Ras farnesyl transferase, K-Ras substrate
Format: biochemical
pIC50: −log10 of the molar value.
Entries and their pIC50 values follow.
property.measured: pIC50

smiles_str=COCCN(C)C(=O)c1cn(Cc2cncn2Cc2ccc(Br)cc2)cc1C(=O)c1cccc2ccccc12 property_measured=pIC50 assay_result="4.00 to 5.00"
smiles_str=N#Cc1ccc(Cn2cncc2Cn2ccc(C(=O)c3cccc4ccccc34)c2)cc1 property_measured=pIC50 assay_result=4.43
smiles_str=O=C(c1ccn(Cc2cncn2Cc2ccc(Br)cc2)c1)c1cccc2ccccc12 property_measured=pIC50 assay_result="4.30 to 5.00"
smiles_str=O=C(c1cn(Cc2c[nH]cn2)cc1-c1cccc2ccccc12)c1cccc2ccccc12 property_measured=pIC50 assay_result="5.00 to 7.00"
smiles_str=O=C1CCN(C(=O)c2cn(Cc3c[nH]cn3)cc2-c2cccc3ccccc23)CC1 property_measured=pIC50 assay_result="5.00 to 7.00"

###

Entries and their pIC50 values follow.
Target: Ras farnesyl transferase (Rattus norvegicus, UniProt Q02293+Q04631)
Construct: endogenous in cells; host or cells: Rat2 fibroblasts transformed with H-Ras or with an H-Ras/K-Ras C-terminus fusion
Test: In vivo (cellular) inhibitory activity for Ras farnesyl transferase, Rat2 cell line transformed with fused protein of H-Ras substituted with polybasic lysine domain at C-terminus of K-Ras
Type: cell-based
Conditions: Rat2 cell line transformed with H-Ras fused with polybasic lysine domain of K-Ras C-terminus; concentration inhibiting 50% of farnesyl bonding; read-out: K-Ras CIC50
pIC50: −log10 of the molar value.
property.measured: pIC50

compound="COC(=O)C(CCSC)NC(=O)c1cn(Cc2cncn2Cc2ccc(C#N)cc2)cc1-c1cccc2ccccc12 (stereo in doubt)" target_system="Ras farnesyl transferase (Rattus norvegicus, UniProt Q02293+Q04631)" assay_result="< 4.70"
compound=CN1CCN(C(=O)c2cn(Cc3cncn3CCc3ccccc3F)cc2-c2cccc3ccccc23)CC1 target_system="Ras farnesyl transferase (Rattus norvegicus, UniProt Q02293+Q04631)" assay_result="4.30 to 5.00"
compound=CN1CCN(C(=O)c2cn(Cc3cncn3CCc3ccccc3)cc2-c2cccc3ccccc23)CC1 target_system="Ras farnesyl transferase (Rattus norvegicus, UniProt Q02293+Q04631)" assay_result="4.30 to 5.00"
compound=O=C(c1cn(CCCc2c[nH]cn2)cc1-c1cccc2ccccc12)N1CCOCC1 target_system="Ras farnesyl transferase (Rattus norvegicus, UniProt Q02293+Q04631)" assay_result="4.00 to 5.00"
compound=N#Cc1ccc(C(=O)c2cn(Cc3c[nH]cn3)cc2-c2cccc3ccccc23)cc1 target_system="Ras farnesyl transferase (Rattus norvegicus, UniProt Q02293+Q04631)" assay_result="4.00 to 5.00"
compound=O=C(c1cn(Cc2c[nH]cn2)cc1-c1cccc2ccccc12)N1CCC(O)CC1 target_system="Ras farnesyl transferase (Rattus norvegicus, UniProt Q02293+Q04631)" assay_result="4.00 to 5.00"
compound=COCCN(C)C(=O)c1sc(Cc2cncn2CC2CCN(C(=O)OCc3ccccc3)CC2)nc1-c1cccc2ccccc12 target_system="Ras farnesyl transferase (Rattus norvegicus, UniProt Q02293+Q04631)" assay_result="< 4.30"
